# measurement-target: Neutrophil elastase (Homo sapiens, UniProt P08246); also: in other assays of this panel Not Active means under 50% inhibition at 10 µM;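 also: inhibition of neutrophil elastase enzyme activity, measured with a p-nitroanilide-linked peptide substrate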
# Sequence (P08246 whole entry): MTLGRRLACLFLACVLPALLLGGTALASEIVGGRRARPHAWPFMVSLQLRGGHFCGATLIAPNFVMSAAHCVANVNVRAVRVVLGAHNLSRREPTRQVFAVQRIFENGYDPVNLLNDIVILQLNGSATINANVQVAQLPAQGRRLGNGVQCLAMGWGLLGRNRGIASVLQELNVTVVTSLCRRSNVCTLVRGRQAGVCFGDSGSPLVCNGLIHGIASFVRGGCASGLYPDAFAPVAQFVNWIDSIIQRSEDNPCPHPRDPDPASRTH
# Type: tissue-based
readout-name: IC50

# compound, readout-name, result-value
rows = [
    ("NC[C@@H]1O[C@H](O[C@H]2[C@@H](O)[C@H](O[C@@H]3[C@@H](O)[C@H](N)C[C@H](N)[C@H]3O[C@H]3O[C@H](CN)[C@@H](O)[C@H](O)[C@H]3N)O[C@@H]2CO)[C@H](N)[C@@H](O)[C@@H]1O [FRAMYCETIN]", "IC50", "Not Active"),
    ("NC[C@H]1O[C@H](O[C@H]2[C@H](O)[C@@H](O[C@H]3O[C@H](CO)[C@@H](O)[C@H](N)[C@H]3O)[C@H](N)C[C@@H]2N)[C@H](O)[C@@H](O)[C@@H]1O [KANAMYCIN]", "IC50", "Not Active"),
    ("CN1C[C@H](C(=O)N[C@]2(C)O[C@@]3(O)[C@@H]4CCCN4C(=O)[C@H](Cc4ccccc4)N3C2=O)C[C@@H]2c3cccc4[nH]cc(c34)C[C@H]21 [DIHYDROERGOTAMINE]", "IC50", "Not Active"),
    ("CO[C@H]1[C@@H](O)[C@H](N)[C@@H](O[C@H]2O[C@H]([C@H](C)N)CC[C@H]2N)[C@H](O)[C@@H]1N(C)C(=O)CN [ASTROMICIN]", "IC50", "Not Active"),
    ("CCCCC1C(=O)N(c2ccccc2)N(c2ccccc2)C1=O [PHENYLBUTAZONE]", "IC50", "Not Active"),
    ("CC(C)OC(=O)C(C)(C)Oc1ccc(C(=O)c2ccc(Cl)cc2)cc1 [FENOFIBRATE]", "IC50", "Not Active"),
]

----------
# assay-info: DRUGMATRIX: Serotonin (5-Hydroxytryptamine) 5-HT3 radioligand binding (ligand: [3H] GR-65630)
# Assay type: cell membranes, Membrane
# measurement-conditions: hek293; Not Active = under 50% inhibition at 10 µM

# molecule, IC50
measured = [
    ("NC[C@@H]1O[C@H](O[C@H]2[C@@H](O)[C@H](O[C@@H]3[C@@H](O)[C@H](N)C[C@H](N)[C@H]3O[C@H]3O[C@H](CN)[C@@H](O)[C@H](O)[C@H]3N)O[C@@H]2CO)[C@H](N)[C@@H](O)[C@@H]1O", "Not Active"),
    ("C[C@]12CCC(=O)C=C1CC[C@@H]1[C@@H]2[C@@H](O)C[C@@]2(C)[C@H]1CC[C@]2(O)C(=O)CO [HYDROCORTISONE]", "Not Active"),
    ("CS(=O)(=O)OCCCCOS(C)(=O)=O", "Not Active"),
]

----------
Ki reference
# measurement-target: Sodium-dependent dopamine transporter (Homo sapiens, UniProt Q01959)
# Sequence (Q01959 whole entry): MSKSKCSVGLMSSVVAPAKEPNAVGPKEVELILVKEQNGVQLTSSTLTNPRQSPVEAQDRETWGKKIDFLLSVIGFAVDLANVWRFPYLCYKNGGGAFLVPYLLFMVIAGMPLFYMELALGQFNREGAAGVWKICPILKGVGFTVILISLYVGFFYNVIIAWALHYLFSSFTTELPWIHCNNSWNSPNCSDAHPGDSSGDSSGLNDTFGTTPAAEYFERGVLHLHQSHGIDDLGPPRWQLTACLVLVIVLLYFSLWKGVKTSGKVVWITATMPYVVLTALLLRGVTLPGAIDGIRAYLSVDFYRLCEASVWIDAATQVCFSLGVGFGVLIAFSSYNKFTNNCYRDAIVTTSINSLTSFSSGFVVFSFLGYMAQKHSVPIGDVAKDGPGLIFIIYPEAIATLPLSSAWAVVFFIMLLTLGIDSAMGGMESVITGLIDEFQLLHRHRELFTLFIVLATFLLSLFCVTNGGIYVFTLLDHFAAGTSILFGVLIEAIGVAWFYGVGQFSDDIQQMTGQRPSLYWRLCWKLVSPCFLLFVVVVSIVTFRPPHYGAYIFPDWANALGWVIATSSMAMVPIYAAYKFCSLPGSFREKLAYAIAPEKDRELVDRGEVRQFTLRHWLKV
# assay-info: DRUGMATRIX: Dopamine Transporter radioligand binding (ligand: [125I] RTI-55)
# Assay type: cell membranes, CHO-K1, Membrane
# measurement-conditions: Not Active = under 50% inhibition at 10 µM; read-out: Ki

# compound, unit-symbol, Ki
measured = [
    ("C#C[C@]1(O)CC[C@H]2[C@@H]3CCC4=Cc5oncc5C[C@]4(C)[C@H]3CC[C@@]21C", "nM", 5440),
    ("CC[C@H](C)C(=O)O[C@H]1C[C@@H](C)C=C2C=C[C@H](C)[C@H](CC[C@@H]3C[C@@H](O)CC(=O)O3)[C@H]21", "nM", 8030),
    ("CC(CCc1ccc(O)cc1)NCCc1ccc(O)c(O)c1 (centres undefined)", "nM", 123),
    ("C#C[C@]1(O)CC[C@H]2[C@@H]3CCc4cc(O)ccc4[C@H]3CC[C@@]21C", "nM", 444),
]

----------
# measurement-target: Voltage-gated inwardly rectifying potassium channel KCNH2 (Homo sapiens, UniProt Q12809); also: in other assays of this panel Not Active means under 50% inhibition at 10 µM
# Sequence (Q12809 whole entry): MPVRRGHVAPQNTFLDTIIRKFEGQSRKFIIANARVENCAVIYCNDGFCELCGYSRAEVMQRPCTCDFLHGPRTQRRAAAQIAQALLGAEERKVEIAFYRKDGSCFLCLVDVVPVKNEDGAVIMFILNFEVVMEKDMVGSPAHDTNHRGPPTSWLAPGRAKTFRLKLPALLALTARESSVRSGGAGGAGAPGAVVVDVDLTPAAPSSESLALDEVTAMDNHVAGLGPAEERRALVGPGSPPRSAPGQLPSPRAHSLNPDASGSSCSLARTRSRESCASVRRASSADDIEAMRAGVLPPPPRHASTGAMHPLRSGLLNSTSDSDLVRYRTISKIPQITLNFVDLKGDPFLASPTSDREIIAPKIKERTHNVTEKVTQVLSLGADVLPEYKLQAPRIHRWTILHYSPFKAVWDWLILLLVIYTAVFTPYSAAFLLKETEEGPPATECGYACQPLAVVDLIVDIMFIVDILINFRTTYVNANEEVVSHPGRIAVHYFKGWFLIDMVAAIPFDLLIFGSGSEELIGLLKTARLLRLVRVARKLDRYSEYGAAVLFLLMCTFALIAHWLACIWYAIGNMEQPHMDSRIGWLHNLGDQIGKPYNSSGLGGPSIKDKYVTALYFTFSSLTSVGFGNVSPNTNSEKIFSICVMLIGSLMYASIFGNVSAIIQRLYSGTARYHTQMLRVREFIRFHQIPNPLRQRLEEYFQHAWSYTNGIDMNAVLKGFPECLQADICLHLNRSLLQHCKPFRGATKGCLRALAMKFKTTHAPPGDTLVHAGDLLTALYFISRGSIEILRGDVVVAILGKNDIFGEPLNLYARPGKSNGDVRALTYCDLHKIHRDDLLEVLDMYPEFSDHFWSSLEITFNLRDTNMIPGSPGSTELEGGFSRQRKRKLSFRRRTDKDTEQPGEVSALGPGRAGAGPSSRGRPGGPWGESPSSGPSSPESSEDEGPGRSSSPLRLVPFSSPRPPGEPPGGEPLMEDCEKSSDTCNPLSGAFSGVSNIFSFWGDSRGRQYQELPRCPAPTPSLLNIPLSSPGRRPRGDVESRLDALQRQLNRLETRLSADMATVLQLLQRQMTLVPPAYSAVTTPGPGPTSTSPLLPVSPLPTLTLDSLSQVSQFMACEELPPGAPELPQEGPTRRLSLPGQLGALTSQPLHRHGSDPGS

# smiles-repr, unit-symbol, IC50
records = [
    ("OCCN1CCN(CCCN2c3ccccc3Sc3ccc(C(F)(F)F)cc32)CC1", "µM", 5.71),
]

----------
# assay-info: DRUGMATRIX: Glutamate, AMPA radioligand binding (ligand: [3H] AMPA)
# Assay type: cell membranes, Rattus norvegicus, Wistar, Cerebral cortex, Membrane
# measurement-conditions: Not Active = under 50% inhibition at 10 µM

# compound, IC50
records = [
    ("C[C@@H]1CC[C@H]2[C@@H](C)C(=O)O[C@@H]3O[C@@]4(C)CC[C@@H]1[C@]32OO4", "Not Active"),
    ("COc1cc(C(=O)NS(=O)(=O)c2ccccc2C)ccc1Cc1cn(C)c2ccc(NC(=O)OC3CCCC3)cc12", "Not Active"),
    ("C=C(CC)C(=O)c1ccc(OCC(=O)O)c(Cl)c1Cl", "Not Active"),
    ("CC(C(=O)O)c1ccc(-c2ccccc2)c(F)c1 (stereo not drawn)", "Not Active"),
    ("Nc1nc(Cl)nc2c1ncn2[C@H]1C[C@H](O)[C@@H](CO)O1", "Not Active"),
    ("CNC(=C[N+](=O)[O-])NCCSCc1csc(CN(C)C)n1", "Not Active"),
    ("N=C(N)N/N=C/c1c(Cl)cccc1Cl", "Not Active"),
    ("Nn1nnc2ccccc21", "Not Active"),
    ("Cc1cccc(Nc2cc(Cl)nc(SCC(=O)O)n2)c1C", "Not Active"),
    ("COc1ccc(CN2CCNCC2)c(OC)c1OC", "Not Active"),
    ("CC(C(=O)O)c1ccc(CC2CCCC2=O)cc1 (stereo not drawn)", "Not Active"),
    ("NC[C@H]1O[C@H](O[C@H]2[C@H](O)[C@@H](O[C@H]3O[C@H](CO)[C@@H](O)[C@H](N)[C@H]3O)[C@H](N)C[C@@H]2N)[C@H](N)C[C@@H]1O", "Not Active"),
    ("C[C@H](C(=O)O)c1cccc(C(=O)c2ccccc2)c1", "Not Active"),
    ("CC[C@]1(O)CC[C@H]2[C@@H]3CCC4=CCCC[C@@H]4[C@H]3CC[C@@]21C", "Not Active"),
    ("Cc1cnc(C(=O)NCCc2ccc(S(=O)(=O)NC(=O)NC3CCCCC3)cc2)cn1 [GLIPIZIDE]", "Not Active"),
    ("Cc1cccc(Nc2ccccc2C(=O)O)c1C", "Not Active"),
    ("Nc1nc(N)nc(NC2CC2)n1", "Not Active"),
    ("CCCCC1C(=O)N(c2ccccc2)N(c2ccccc2)C1=O", "Not Active"),
    ("CN(C(=O)CCCOc1ccc2[nH]c(=O)ccc2c1)C1CCCCC1 [CILOSTAMIDE]", "Not Active"),
    ("O=P(O)(O)C(O)(Cc1cccnc1)P(=O)(O)O", "Not Active"),
    ("CN1C[C@H](C(=O)N[C@]2(C)O[C@@]3(O)[C@@H]4CCCN4C(=O)[C@H](Cc4ccccc4)N3C2=O)C[C@@H]2c3cccc4[nH]cc(c34)C[C@H]21 [DIHYDROERGOTAMINE]", "Not Active"),
    ("Cc1c(F)c(N2CCNC(C)C2)cc2c1c(=O)c(C(=O)O)cn2C1CC1 (stereo not drawn)", "Not Active"),
    ("CCCc1nn(C)c2c(=O)[nH]c(-c3cc(S(=O)(=O)N4CCN(C)CC4)ccc3OCC)nc12", "Not Active"),
]

----------
# assay-info: DRUGMATRIX: Phorbol Ester radioligand binding (ligand: [3H] PDBu)
# Assay type: cell membranes, Mus musculus, ICR, Brain, Membrane
# measurement-conditions: Not Active = under 50% inhibition at 10 µM

# compound, Ki
measured = [
    ("C[C@]12C/C(=C/O)C(=O)C[C@@H]1CC[C@@H]1[C@@H]2CC[C@@]2(C)[C@H]1CC[C@]2(C)O", "Not Active"),
    ("CCC(=O)O[C@H]1[C@H](O[C@@H]2[C@@H](C)[C@H](O[C@H]3C[C@@](C)(OC)[C@@H](O)[C@H](C)O3)[C@@H](C)C(=O)O[C@H](CC)[C@@](C)(O)[C@H](O)[C@@H](C)C(=O)[C@H](C)C[C@@]2(C)O)O[C@H](C)C[C@@H]1N(C)C [ERYTHROMYCIN PROPIONATE]", "Not Active"),
    ("C/C=C\\c1ccc(O)c(OC)c1", "Not Active"),
]

----------
# assay-info: DRUGMATRIX: Phorbol Ester radioligand binding (ligand: [3H] PDBu)
# Format: cell membranes, Mus musculus, ICR, Brain, Membrane
# measurement-conditions: Not Active = under 50% inhibition at 10 µM

# molecule, Ki
rows = [
    ("COC(=O)c1ccccc1O [METHYL SALICYLATE]", "Not Active"),
    ("CO[C@H]1C[C@@H]2CC[C@@H](C)[C@@](O)(O2)C(=O)C(=O)N2CCCC[C@H]2C(=O)O[C@H]([C@H](C)C[C@@H]2CC[C@@H](O)[C@H](OC)C2)CC(=O)[C@H](C)/C=C(\\C)[C@@H](O)[C@@H](OC)C(=O)[C@H](C)C[C@H](C)/C=C/C=C/C=C/1C", "Not Active"),
    ("CCCc1nn(C)c2c(=O)[nH]c(-c3cc(S(=O)(=O)N4CCN(C)CC4)ccc3OCC)nc12", "Not Active"),
    ("CN(CCOc1ccc(CC2SC(=O)NC2=O)cc1)c1ccccn1 (centres undefined)", "Not Active"),
]
